target: human Akt1 kinase (kinase domain residues R144-A480, activated with PDK1) (Homo sapiens); assay: Akt1 kinase assay, Luciferase-Coupled Chemiluminescent Kinase assay (LCCA); conditions: 1 μM ATP, 1.3 nM Akt1; read-out: Akt-1 inhibition IC50
Sequence (P31749 144-480): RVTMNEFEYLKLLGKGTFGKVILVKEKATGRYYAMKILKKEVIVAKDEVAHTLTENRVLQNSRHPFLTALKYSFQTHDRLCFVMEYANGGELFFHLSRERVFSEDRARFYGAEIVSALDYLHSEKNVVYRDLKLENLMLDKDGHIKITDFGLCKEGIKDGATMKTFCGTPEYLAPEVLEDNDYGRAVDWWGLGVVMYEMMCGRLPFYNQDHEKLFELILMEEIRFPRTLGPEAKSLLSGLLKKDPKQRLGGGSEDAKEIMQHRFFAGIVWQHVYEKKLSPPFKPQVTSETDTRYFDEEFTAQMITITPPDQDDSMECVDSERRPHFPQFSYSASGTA
pIC50: −log10 of the molar value.
quantity.name: pIC50

Brc1n[nH]c2ncnc(N3CCN(Cc4ccc5c(c4)OCCO5)CC3)c12 [Entry 36]    < 5.70
Brc1n[nH]c2ncnc(N3CCN(C4CCCCc5ccccc54)CC3)c12 (stereo not drawn) [Entry 78]    < 5.70
Clc1ccc([C@H](OCCN2CCOCC2)C2CCN(c3ncnc4[nH]nc(Br)c34)CC2)cc1 [Entry 95]    > 7.30
CN(C)CCNC(=O)N(c1ccc(Br)c(F)c1)C1CCN(c2ncnc3[nH]nc(Br)c23)CC1 [Entry 87]    > 7.30
Brc1n[nH]c2ncnc(N3CCN(Cc4cccc(Oc5ccccc5)c4)CC3)c12 [Entry 53]    < 5.70
CC(C)(C)c1ccc(CN2CCN(c3ncnc4[nH]nc(Br)c34)CC2)cc1 [Entry 7]    < 5.70
Brc1n[nH]c2ncnc(N3CCN(Cc4ccc(Oc5ccccc5)cc4)CC3)c12 [Entry 39]    < 5.70
Brc1n[nH]c2ncnc(N3CCN(CCc4cccs4)CC3)c12 [Entry 68]    < 5.70
Brc1n[nH]c2ncnc(N3CCN(Cc4cccc(OCc5ccccc5)c4)CC3)c12 [Entry 62]    < 5.70
C=CCCC(=O)N(c1ccc(Cl)cc1)C1CCN(c2ncnc3[nH]nc(Br)c23)CC1 [Entry 35]    6.30 to 7.30
O=C(/C=C/c1ccccc1)N1CCN(c2ncnc3[nH]nc(Br)c23)CC1 [Entry 43]    < 5.70
OC(c1ccc(F)cc1)C1CCN(c2ncnc3[nH]nc(Br)c23)CC1 (stereo not drawn) [Entry 22]    6.30 to 7.30
Brc1n[nH]c2ncnc(N3CCN(Cc4cccc5ccccc45)CC3)c12 [Entry 63]    < 5.70
O=[N+]([O-])c1cc(CN2CCN(c3ncnc4[nH]nc(Br)c34)CC2)ccc1Oc1ccc(F)cc1 [Entry 65]    < 5.70
CN(C)CCCOC(c1ccc(Cl)cc1)C1CCN(c2ncnc3[nH]nc(Br)c23)CC1 (stereo not drawn) [Entry 3]    > 7.30
O=C(NCCCN1CCOCC1)c1ccc(CN2CCN(c3ncnc4[nH]nc(Br)c34)CC2)cc1 [Entry 81]    < 5.70
CN(C)CCNC(=O)C(c1ccc(Cl)cc1)N1CCN(c2ncnc3[nH]nc(Br)c23)CC1 (stereo not drawn) [Entry 9]    > 7.30
Clc1cc(CN2CCN(c3ncnc4[nH]nc(Br)c34)CC2)ccc1OCc1ccccc1 [Entry 80]    < 5.70
CCN(CC)CCCNC(=O)C1(c2ccc(Cl)cc2)CCN(c2ncnc3[nH]nc(Br)c23)CC1 [Entry 49]    5.70 to 6.30
O=[N+]([O-])c1cc(CN2CCN(c3ncnc4[nH]nc(Br)c34)CC2)ccc1Oc1ccc(Cl)cc1 [Entry 84]    < 5.70
CCN(CC)CCS(=O)(=O)N(c1ccc(Cl)cc1)C1CCN(c2ncnc3[nH]nc(Br)c23)CC1 [Entry 29]    > 7.30
Fc1cc(Cl)ccc1CN1CCN(c2ncnc3[nH]nc(Br)c23)CC1 [Entry 17]    6.30 to 7.30
CN(C)CCNC(=O)C(c1ccc(Cl)cc1)N1CCN(c2ncnc3[nH]nc(Br)c23)CC1=O (stereo not drawn) [Entry 14]    > 7.30
CN(C)CCO[C@@H](c1ccc(Cl)c(F)c1)C1CCN(c2ncnc3[nH]nc(Br)c23)CC1 [Entry 92]    > 7.30
